# LD50 per entry
- ASSAY NOTES: LD50 value and Therapeutic index
- EXPERIMENTAL CONDITIONS: mouse, in vivo, po; mice
Your answer should be a plain number; it is taken to be in mg/kg.

1) CON1C(=O)CC2(CCNCC2)C1=O [Example 9] = 2010

Field: next molecule
query: # get_value(readout='LD50', item= CCN1C(=O)CC2(CCN(C)CC2)C1=O [RS-86, reference compound] )
result: 574

###

- Test system: mice
- ASSAY NOTES: General Symptoms (Side Effects) in mice
- Format: in vivo
- Set-up: key: +++: marked; ++: moderate; +: mild; -: nondetected
- EXPERIMENTAL CONDITIONS: i.p., observed for 4 hours, central effect
PROPERTY MEASURED: Sedation

1) CON1C(=O)CC2(CCN(C(=O)OCCBr)CC2)C1=O [Example 22] = +
2) CON1C(=O)CC2(CCN(C)CC2)C1=O.Cl [Example 1] = ++
3) CCN1C(=O)CC2(CCN(C)CC2)C1=O [RS-86, reference compound] = +++
4) CON1C(=O)CC2(CCNCC2)C1=O [Example 9] = ++

# credit: patent US4804665A
